- TARGET_SYSTEM: bradykinin receptor 1 (B1R) of the rat (Rattus norvegicus)
- Construct: expressed in transfected cells; host or cells: CHO K1 cells
- Sequence (P97583 whole entry): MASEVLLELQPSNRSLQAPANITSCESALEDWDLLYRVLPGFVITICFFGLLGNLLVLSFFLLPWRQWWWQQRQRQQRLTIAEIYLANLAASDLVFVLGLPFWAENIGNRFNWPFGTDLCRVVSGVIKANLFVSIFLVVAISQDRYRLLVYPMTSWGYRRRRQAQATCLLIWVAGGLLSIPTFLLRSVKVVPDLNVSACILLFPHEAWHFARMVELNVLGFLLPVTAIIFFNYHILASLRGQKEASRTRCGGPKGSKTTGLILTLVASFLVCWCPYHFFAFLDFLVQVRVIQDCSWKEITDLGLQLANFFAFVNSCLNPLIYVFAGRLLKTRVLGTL
- ASSAY_NOTES: Functional study on the bradykinin receptor 1 (B1R), rat: FLIPR Ca2+ influx assay
- Assay type: cell-based
- TEST_CONDITIONS: test substance 10 μM; CHO K1 cells transfected with rat B1R; Des-Arg9-bradykinin at EC80; Ca2+ influx (Fluo-4, FLIPR); read-out: B1R antagonism, rat [10 μM] % inhibition
We'd kindly ask you to apply these inhibition at 10 µM classes: A = under 20%, B = from 20% up to 40%, C = 40% and over

Worked set:
                                   compound  answer_label
0  CN1CCN(C(c2cccc(F)c2)C2CCN(C(=O)CC3CCCCN3S(=O)(=O)c3cccc(C(F)(F)F)c3)CC2)CC1 (centres unmarked)             C
1  COc1ccc(S(=O)(=O)N2CCc3ccccc3C2CC(=O)NCCC2CCC(C(c3ccc(F)cc3)N(C)C)CC2)cc1 (centres unmarked)             C
2  O=C(CC1CCCN1S(=O)(=O)c1ccc(Cl)c(Cl)c1)NCC1CCC(C(CCc2ccccc2)N2CCOCC2)CC1 (centres unmarked)             A

Enquiry: Which category does the recorded inhibition at 10 µM put O=C(CC1CCCCN1S(=O)(=O)c1ccc(Cl)c(Cl)c1)NCC1CCC(C(CCc2ccccc2)N2CCOCC2)CC1 (centres unmarked) in?
Return: A

Enquiry: Lab note: sort O=C(CC1C(=O)NCCN1S(=O)(=O)c1ccc(Cl)cc1Cl)NC1CCC(C(CCc2ccccc2)N2CCCCC2)CC1 (centres unmarked) into the matching inhibition at 10 µM band.
Return: B

Enquiry: Could you place O=C(CC1C(=O)NCCN1S(=O)(=O)c1ccc(Cl)cc1Cl)NCC1CCC(C(CCc2ccccc2)N2CCCC2)CC1 (centres unmarked) in its proper category? Many thanks.
Return: B

* * *

- TARGET_SYSTEM: human μ-opiate receptor (Homo sapiens, UniProt P35372)
- Construct: purchased PerkinElmer Life Sciences, Zaventem, Belgium RB-HOM; host or cells: CHO-K1 cells (membrane preparation)
- Sequence (P35372 whole entry): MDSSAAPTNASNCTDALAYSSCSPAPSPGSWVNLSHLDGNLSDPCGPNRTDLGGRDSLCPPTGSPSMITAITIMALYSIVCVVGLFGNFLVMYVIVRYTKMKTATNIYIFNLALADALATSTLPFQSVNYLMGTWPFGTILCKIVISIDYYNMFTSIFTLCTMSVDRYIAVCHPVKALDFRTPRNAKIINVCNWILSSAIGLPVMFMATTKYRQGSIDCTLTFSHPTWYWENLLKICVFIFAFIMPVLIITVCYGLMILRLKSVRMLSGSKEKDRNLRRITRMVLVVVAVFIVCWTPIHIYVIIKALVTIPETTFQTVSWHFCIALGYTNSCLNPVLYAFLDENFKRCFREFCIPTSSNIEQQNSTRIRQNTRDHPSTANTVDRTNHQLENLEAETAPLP
- ASSAY_NOTES: Affinity for the human μ-opiate receptor ([3H]-naloxone displacement, SPA)
- TEST_CONDITIONS: test substance 1 μmol/l; inhibition of specific [3H]-naloxone binding; CHO-K1 receptor membrane preparation; read-out: μ-Opioid receptor [1 μM] % inhibition
Recorded inhibition at 1 µM by entry
Output spec: scalar in %, unitless text.

Take a look at these entries with their results.
>>> print(df.to_string())
                                   molecule  value_reported
0  CN1CCN(C(c2ccccc2)C2CCC(NC(=O)CC3C(=O)Nc4ccccc4N3S(=O)(=O)c3ccc(Cl)c(Cl)c3)CC2)CC1 (centres unmarked)              11
1  O=C(CC1CCCN1S(=O)(=O)c1ccc(Cl)c(Cl)c1)NCC1CCC(C(c2ccccc2)N2CCOCC2)CC1 (centres unmarked)              17
2  O=C(CC1CCCCN1S(=O)(=O)c1ccc(Cl)c(Cl)c1)N1CCC(C(c2ccccc2)N2CCOCC2)CC1 (centres unmarked)             8.5

As a next step, examine the molecule that follows.
Query O=C(CC1C(=O)Nc2ccccc2N1S(=O)(=O)c1ccc(Cl)c(Cl)c1)NCC1CCC(C(c2ccccc2)N2CCOCC2)CC1 (centres unmarked) yields inhibition at 1 µM of 10
